Target: UniProt:P21554
Test: bioSensAll ebBRET signaling profiling, hCB1
Format: cell-based
Set-up: host or cells: HEK293SL cells, transient PEI transfection
Conditions: Gi1 biosensor; Log [Compound] (M) -7.14267
measure-name: Gi1 hCB1 response
No unit in the answer, only the number.

Below: 10 compounds and their reported Gi1 hCB1 response.
COC(=O)C(NC(=O)c1cc(C)n(-c2cccc(F)c2)n1)c1cccs1 (centres unmarked)	-1.511
Cc1cc(C(=O)N2CC3(CCC3)[C@H]2[C@@H]2CCCO2)nn1-c1cccc(C(F)(F)F)c1	11.8954
Cc1cc(C(=O)NC(c2ccco2)c2ccco2)nn1-c1cccc(C(F)(F)F)c1	48.8248
Cc1cc(C(=O)N2CC3(CCC3)[C@@H]2[C@@H]2CCCO2)nn1-c1cccc(C(F)(F)F)c1	-3.682
COc1cccc(C(NC(=O)c2cc(C)n(-c3cccc(C(F)(F)F)c3)n2)c2ccco2)c1 (centres unmarked)	-10.3741
Cc1cc(C(=O)NC(c2ccccc2)c2ccco2)nn1-c1cccc(C(F)(F)F)c1 (centres unmarked)	32.464
COC(=O)[C@@H]1[C@@H]2CC[C@@H]2CN1C(=O)c1cc(C)n(-c2cccc(C(F)(F)F)c2)n1	33.4711
COC(=O)[C@@H]1[C@@H]2CCC[C@@H]2CN1C(=O)c1cc(C)n(-c2cccc(C(F)(F)F)c2)n1	58.225
COC(=O)[C@](C)(NC(=O)c1cc(C)n(-c2cccc(C(F)(F)F)c2)n1)c1cccs1	64.4023
COC(=O)C(NC(=O)c1cc(C)n(-c2cccc(C(F)(F)F)c2)n1)c1cccs1 (centres unmarked)	90.8795

Exercise: Need Gi1 hCB1 response of `Cc1cc(C(=O)N2CC3(CCC3)[C@H]2[C@H]2CCCO2)nn1-c1cccc(C(F)(F)F)c1` , thanks.
Key: 3.39

Exercise: Need Gi1 hCB1 response of CC(=O)C(c1cccs1)N(C)C(=O)c1cc(C)n(-c2cccc(C(F)(F)F)c2)n1 (centres unmarked) , thanks.
Key: -0.2577

Exercise: Need Gi1 hCB1 response of `Cc1cc(C(=O)N(C)C(c2ccco2)c2ccco2)nn1-c1cccc(C(F)(F)F)c1` , thanks.
Key: 5.942

Exercise: Need Gi1 hCB1 response of Cc1cc(C(=O)N(C)C(c2ccccc2)c2ccco2)nn1-c1cccc(C(F)(F)F)c1 (centres unmarked) , thanks.
Key: 12.0521

Exercise: Need Gi1 hCB1 response of Cc1cc(C(=O)NC(c2ccccc2)c2ccco2)nn1-c1cccc(C#N)c1 (centres unmarked) , thanks.
Key: 19.6618

Exercise: Need Gi1 hCB1 response of Cc1cc(C(=O)N2CC3(CCC3)[C@@H]2[C@H]2CCCO2)nn1-c1cccc(C(F)(F)F)c1 (single isomer, unassigned) , thanks.
Key: -2.6525

Exercise: Need Gi1 hCB1 response of COC(=O)[C@@H]1[C@@H]2CCC[C@@H]2CN1C(=O)c1cc(C)n(-c2cccc(Cl)c2)n1 (racemic) , thanks.
Key: 11.5597

---

Biological target: hCB1 (Homo sapiens)
Sequence (P21554 whole entry): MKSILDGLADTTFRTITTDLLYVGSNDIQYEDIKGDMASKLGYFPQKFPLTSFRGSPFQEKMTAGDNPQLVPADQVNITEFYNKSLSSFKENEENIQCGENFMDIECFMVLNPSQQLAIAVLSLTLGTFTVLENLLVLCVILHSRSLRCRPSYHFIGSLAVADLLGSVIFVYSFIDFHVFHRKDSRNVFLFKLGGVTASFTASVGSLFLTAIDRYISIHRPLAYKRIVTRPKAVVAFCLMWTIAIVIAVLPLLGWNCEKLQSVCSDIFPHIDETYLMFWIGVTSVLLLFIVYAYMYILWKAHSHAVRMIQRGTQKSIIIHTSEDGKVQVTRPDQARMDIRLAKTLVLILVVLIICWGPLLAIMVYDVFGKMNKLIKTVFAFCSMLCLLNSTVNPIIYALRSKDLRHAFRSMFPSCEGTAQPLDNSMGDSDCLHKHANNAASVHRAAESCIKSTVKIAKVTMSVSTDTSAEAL
Assay: bioSensAll ebBRET signaling profiling, hCB1
Assay type: cell-based
Parameters: host or cells: HEK293SL cells, transient PEI transfection
Conditions: Log [Compound] (M) -12.3979; single replicate values, FigS6a
measure-name: GoB hCB1
No unit in the answer, only the number.

Cc1cc(C(=O)NC(c2ccccc2)c2ccco2)nn1-c1cccc(C(F)(F)F)c1 (centres unmarked)	-1.071
COC(=O)C(NC(=O)c1cc(C)n(-c2cccc(C(F)(F)F)c2)n1)c1cccs1 (centres unmarked)	0.619
Cc1cc(C(=O)NC(c2ccco2)c2ccco2)nn1-c1cccc(C(F)(F)F)c1	1.59
Cn1nc(-c2nnc(C(C)(C)Oc3ccc(C(F)(F)F)cc3)o2)c2ccccc2c1=O	-7.09

Turning now to a further record.
Exercise: Need GoB hCB1 of Cc1cc(C(=O)N(C)C(c2ccccc2)c2ccco2)nn1-c1cccc(C(F)(F)F)c1 (centres unmarked) , thanks.
Key: -0.9456

---

Biological target: hCB2 (Homo sapiens)
Sequence (P34972 whole entry): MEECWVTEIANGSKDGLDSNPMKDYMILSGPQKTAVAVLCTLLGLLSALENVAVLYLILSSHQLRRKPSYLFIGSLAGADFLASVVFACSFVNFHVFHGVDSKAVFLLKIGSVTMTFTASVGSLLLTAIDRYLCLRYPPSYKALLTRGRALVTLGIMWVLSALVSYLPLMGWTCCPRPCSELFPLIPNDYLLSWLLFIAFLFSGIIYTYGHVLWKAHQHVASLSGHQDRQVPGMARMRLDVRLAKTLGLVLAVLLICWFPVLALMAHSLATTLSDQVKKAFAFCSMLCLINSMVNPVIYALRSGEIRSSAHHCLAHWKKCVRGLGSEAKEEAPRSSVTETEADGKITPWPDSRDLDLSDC
Assay: Tango β-arrestin-2 recruitment, HTLA cells, CB2R
Format: cell-based
Parameters: expressed in transfected cells; host or cells: HEK293 cells stably expressing human CB2R (Laboratory of Ken Mackie)
Conditions: hCB2
# Lookup of reported Tango ß-arrestin recruitment pEC50 keyed by entry

COC(=O)[C@@H]1[C@@H]2CCC[C@@H]2CN1C(=O)c1cc(C)n(-c2cccc(Cl)c2)n1 (racemic) [‘10010]	6.3 [6.2 – 6.3]

Exercise: Need Tango ß-arrestin recruitment pEC50 of Cc1cc(C(=O)N2CC3(CCC3)C2C2CCCO2)nn1-c1cccc(C(F)(F)F)c1 (centres unmarked) [‘3737] , thanks.
Key: 5.8 [5.7 – 5.9]

Exercise: Need Tango ß-arrestin recruitment pEC50 of COC(=O)[C@@H]1[C@@H]2CCC[C@@H]2CN1C(=O)c1cc(C)n(-c2cccc(C(F)(F)F)c2)n1 [‘6439] , thanks.
Key: 6.5 [6.4 – 6.6]

Exercise: Need Tango ß-arrestin recruitment pEC50 of COC(=O)C(C)(NC(=O)c1cc(C)n(-c2cccc(C(F)(F)F)c2)n1)c1cccs1 (centres unmarked) [‘4042] , thanks.
Key: 7.5 [7.2 – 7.7]

Exercise: Need Tango ß-arrestin recruitment pEC50 of COC(=O)C(NC(=O)c1cc(C)n(-c2cccc(C(F)(F)F)c2)n1)c1cccs1 (centres unmarked) [‘60154] , thanks.
Key: 5.5 [5.4 – 5.6]

---

Molecular target: hCB1 (Homo sapiens)
Assay: bioSensAll ebBRET signaling profiling, hCB1
Format: cell-based
Set-up: host or cells: HEK293SL cells, transient PEI transfection
Settings: Gi1 biosensor; Log [Compound] (M) -5.47381
# Lookup of reported Gi1 hCB1 response keyed by entry

Below: 3 molecules and their reported Gi1 hCB1 response.
COC(=O)[C@@H]1[C@@H]2CC[C@@H]2CN1C(=O)c1cc(C)n(-c2cccc(C(F)(F)F)c2)n1 [‘6448]	101.197
COC(=O)[C@@H]1[C@@H]2CCC[C@@H]2CN1C(=O)c1cc(C)n(-c2cccc(Cl)c2)n1 (racemic) [‘10010]	84.2546
Cc1cc(C(=O)NC(c2ccccc2)c2ccco2)nn1-c1cccc(C#N)c1 (centres unmarked) [‘12565]	43.9457

Exercise: Need Gi1 hCB1 response of Cc1cc(C(=O)N2CC3(CCC3)[C@@H]2[C@@H]2CCCO2)nn1-c1cccc(C(F)(F)F)c1 [‘3386] , thanks.
Key: -11.5379

Exercise: Need Gi1 hCB1 response of CC(=O)C(c1cccs1)N(C)C(=O)c1cc(C)n(-c2cccc(C(F)(F)F)c2)n1 (centres unmarked) [‘6829] , thanks.
Key: 50.1453

Exercise: Need Gi1 hCB1 response of Cc1cc(C(=O)NC(c2ccccc2)c2ccco2)nn1-c1cccc(C(F)(F)F)c1 (centres unmarked) [‘1081] , thanks.
Key: 47.9296

Exercise: Need Gi1 hCB1 response of Cc1cc(C(=O)N(C)C(c2ccccc2)c2ccco2)nn1-c1cccc(C(F)(F)F)c1 (centres unmarked) [‘1082] , thanks.
Key: -3.66

Exercise: Need Gi1 hCB1 response of COC(=O)[C@](C)(NC(=O)c1cc(C)n(-c2cccc(C(F)(F)F)c2)n1)c1cccs1 [‘8690] , thanks.
Key: 88.91

---

# Lookup of reported Gi1 hCB1 keyed by entry
Biological target: UniProt:P21554
Experiment: bioSensAll ebBRET signaling profiling, hCB1
Format: cell-based
Set-up: host or cells: HEK293SL cells, transient PEI transfection
Settings: Log [Compound] (M) -4.22186; single replicate values, FigS6a

Below: 5 compounds and their reported Gi1 hCB1.
Cc1nn(Cc2ccc(Cl)cc2)c(C)c1C(=O)OCC1CSc2ccccc2O1 (centres unmarked)	28.0981
Cc1cc(C(=O)NC(c2ccccc2)c2ccco2)nn1-c1cccc(C#N)c1 (centres unmarked)	25.3414
Cc1cc(C(=O)NC(c2ccccc2)c2ccco2)nn1-c1cccc(C(F)(F)F)c1 (centres unmarked)	52.0891
Cc1cc(C(=O)N2CC3(CCC3)[C@@H]2[C@H]2CCCO2)nn1-c1cccc(C(F)(F)F)c1 (single isomer, unassigned)	3.789
CC(=O)C(c1cccs1)N(C)C(=O)c1cc(C)n(-c2cccc(C(F)(F)F)c2)n1 (centres unmarked)	59.6278

Exercise: Need Gi1 hCB1 of COc1cccc(C(NC(=O)c2cc(C)n(-c3cccc(C(F)(F)F)c3)n2)c2ccco2)c1 (centres unmarked) , thanks.
Key: -6.833

Exercise: Need Gi1 hCB1 of `Cc1cc(C(=O)N(C)C(c2ccco2)c2ccco2)nn1-c1cccc(C(F)(F)F)c1` , thanks.
Key: -1.453

Exercise: Need Gi1 hCB1 of Cc1c(C(=O)OCC2CSc3ccccc3O2)cnn1Cc1ccccc1 (centres unmarked) , thanks.
Key: 25.6433
